B1: library; a variant is named by its letters at N, in order (parent)
chain: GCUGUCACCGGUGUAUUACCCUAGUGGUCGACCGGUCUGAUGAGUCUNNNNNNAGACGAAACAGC

Variants of: B1
RUN DESCRIPTION: normalized RNA/DNA level with ligand (relative to sTRSVctl = 100) (log10 (% of sTRSVctl)); ligand: hypoxanthine (xanthine aptamer); higher = less ribozyme self-cleavage, higher mRNA level
MEASUREMENT CONDITIONS: ligand concentration (+) RNA-Seq: 5 mM, HEK293T, reporter: mCherry (pCS4076), ligand present: yes
Examples of variants with documented normalized RNA/DNA level with ligand (log10) follow.
# print the numeric value only

Past entries and their recorded results:
{"columns": ["VARIANT ID", "ASSAY VALUE"],
 "data": [
  ["CUGAUU", 1.94],
  ["AACGUG", 1.82],
  ["GGGCAG", 1.88],
  ["AAGAGG", 1.43]
]}

Problem: Fill in: normalized RNA/DNA level with ligand (log10) of GGAAGC is ___
Result: 1.77
